# Experimental target: T1, His-tagged P3028 (human, also: His tag, length and end not given here)
# T1 construct: in solution at 0.5 ug/mL, detected with mouse anti-His antibody and rabbit anti-mouse peroxidase (rampo); also called PGE73; His-tag-P3028; not shown: His tag
# T1 peptide: VFDEFKPLVEEPQNLIK
# Measurement description: PEPSCAN ELISA, peptide on chip;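 also: binding detected by peroxidase ELISA with ABTS, OD405 colour imaged by CCD camera before and after staining, raw OD405 reported as rampo units, air-bubble wells scored 0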
Ends that are not written are not given here.
Measured metric: RAMPO Score (rampo units)
Give your result in rampo units as a bare value.

KKLATFFVKLSLFTER [SEQ ID NO 298]; 494
KKCDTFFVKLSLFTER [SEQ ID NO 283]; 432

### Prompt Which RAMPO Score is listed for KKLDTFFVKFSLFTER [SEQ ID NO 333] ?
### Response 403

### Prompt Find the recorded RAMPO Score belonging to KKLITFFVKLSLFTER [SEQ ID NO 300] and report it.
### Response 430
